- target entity: WT hPTH-1 receptor (Homo sapiens, UniProt Q03431)
- Construct: encoding the intact hPTH-1 receptor (HK-WT); expressed in transfected cells; host or cells: COS-7, transient, pcDNA-1 plasmid
- Sequence (Q03431 27-593): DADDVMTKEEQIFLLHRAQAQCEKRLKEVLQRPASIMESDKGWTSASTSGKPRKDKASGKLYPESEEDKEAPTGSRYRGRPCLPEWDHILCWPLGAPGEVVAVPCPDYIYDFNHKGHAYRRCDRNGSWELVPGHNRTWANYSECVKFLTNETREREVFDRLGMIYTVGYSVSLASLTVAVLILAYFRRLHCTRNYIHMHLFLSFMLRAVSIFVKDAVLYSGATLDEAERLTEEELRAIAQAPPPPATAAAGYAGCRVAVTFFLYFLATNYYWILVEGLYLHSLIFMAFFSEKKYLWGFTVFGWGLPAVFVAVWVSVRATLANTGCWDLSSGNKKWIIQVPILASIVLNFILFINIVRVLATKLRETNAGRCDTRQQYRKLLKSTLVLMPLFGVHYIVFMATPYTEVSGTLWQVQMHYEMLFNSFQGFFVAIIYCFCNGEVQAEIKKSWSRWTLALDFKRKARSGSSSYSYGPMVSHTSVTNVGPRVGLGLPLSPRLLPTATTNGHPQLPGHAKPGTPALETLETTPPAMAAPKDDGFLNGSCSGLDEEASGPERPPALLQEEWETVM
- assay overview: cAMP stimulation in COS-7 cells transiently transfected with WT hPTH-1 receptor
- Format: cell-based
- conditions: COS-7 cells, WT hPTH-1 receptor, cAMP; read-out: EC50
No end group written: not given here.
measured parameter: EC50 (µM)

[[record]]
substance = "AVAEIQLMHAR-NH2 [compound 6, AlaValAlaGluIleGlnLeuMetHisAlaArg-amide]"
units_of_measure = "µM"
experimental_value = 29.1


Source of measurements: patent US8568736B2
